The origin of these recorded values is patent US6716411B2.

Assay: Half-life in the blood plasma of humans
Type: in vivo
Details: human
quantity.name: half-life

Which half-life is reported for this compound? `C/C(O)=C(\C#N)C(=O)Nc1ccc(C(F)(F)F)cc1`
≤ 14.6 days

* * *

Assay: Tolerability of constant (mini-infusion pump) versus pulse-like (oral) blood levels (Example 5)
Type: in vivo, rat
Settings: male, Lewis, rat, plasma, subcutaneous; 2.5 mg/kg/day mini-infusion; read-out: Compound 1 blood plasma level (day 27)
quantity.name: concentration at 27 day (ng/mL)
Please state the figure in ng/mL; there is no need to write the unit.

Which concentration at 27 day is reported for this molecule? C/C(O)=C(\C#N)C(=O)Nc1ccc(C(F)(F)F)cc1 [compound 1]
2340
